// provenance: PubChem BioAssay (Tox21)

# Tested Target: Aryl hydrocarbon receptor (Homo sapiens) (UniProt P35869)
# Sequence (P35869 whole entry, looked up): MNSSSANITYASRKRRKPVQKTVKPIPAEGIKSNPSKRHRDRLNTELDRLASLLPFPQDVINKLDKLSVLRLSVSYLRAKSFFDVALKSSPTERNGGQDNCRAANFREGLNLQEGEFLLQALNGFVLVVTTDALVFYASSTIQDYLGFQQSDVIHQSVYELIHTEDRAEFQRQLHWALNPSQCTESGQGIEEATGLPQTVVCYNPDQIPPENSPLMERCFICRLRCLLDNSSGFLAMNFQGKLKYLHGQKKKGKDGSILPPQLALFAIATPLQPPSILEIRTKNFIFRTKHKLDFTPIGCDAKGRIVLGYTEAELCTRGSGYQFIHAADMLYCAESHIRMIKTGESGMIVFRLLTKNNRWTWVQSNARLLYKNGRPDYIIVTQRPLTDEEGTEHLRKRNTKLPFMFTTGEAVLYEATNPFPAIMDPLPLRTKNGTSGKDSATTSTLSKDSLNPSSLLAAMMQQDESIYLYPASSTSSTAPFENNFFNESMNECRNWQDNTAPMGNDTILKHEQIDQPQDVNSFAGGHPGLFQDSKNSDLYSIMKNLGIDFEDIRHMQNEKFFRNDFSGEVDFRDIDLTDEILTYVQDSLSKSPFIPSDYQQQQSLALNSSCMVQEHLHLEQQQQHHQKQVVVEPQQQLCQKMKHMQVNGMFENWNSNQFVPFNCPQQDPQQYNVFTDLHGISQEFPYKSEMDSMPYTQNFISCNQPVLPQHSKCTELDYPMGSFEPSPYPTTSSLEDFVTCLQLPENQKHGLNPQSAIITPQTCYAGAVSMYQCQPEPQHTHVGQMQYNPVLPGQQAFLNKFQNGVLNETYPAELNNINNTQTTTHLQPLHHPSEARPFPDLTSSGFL
# Experiment Summary: qHTS assay to identify small molecule that activate the aryl hydrocarbon receptor (AhR) signaling pathway (AID 743085); note: nearly all actives have a fitted effect of over 15% in size; note: potency is the fitted concentration of half-maximal effect;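 for activation: HG2L7.5c1 human HepG2 liver cells with stably integrated DRE-driven firefly reporter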
# Condition Info: HepG2 AhR-luc (HG2L7.5c1), luciferase, 24 h; series mostly up to 70.3 µM
# Excerpt: U.S. Tox21 Program National Center for Advancing Translational Sciences [NCATS] NIH Chemical Genomics Center [NCGC] U.S. Environmental Protection Agency [EPA] National Institutes of Environmental Health Sciences [NIEHS] National Toxicology Program [NTP] U.S. Food and Drug Administration [FDA] Tox21 Assay overview: The Aryl hydrocarbon Receptor (AhR), a member of the family of basic helix-loop-helix transcription factors, is crucial to adaptive responses to environmental changes. […]
Results filed as inconclusive are left out. Active and inactive are the calls of the source. Calls come from the whole dose curve; as a rule, active = well fitted activation curve with a large enough effect in the repeat runs; inconclusive = weak or mixed curves; inactive = no such curve, though single readings can be large or run the other way. Positions of bridges follow the written chain, without caps; N, C: chain ends. Non-standard residues stand in square brackets, D forms with d. Residues, ends and D or L forms follow the SMILES beside them. Orn = NCCC[C@H](N)C(=O)O; Mpa = O=C(O)CCS
Reported Property: Potency

// below: answered molecules
CS(=O)(=O)OCC(O)C(O)COS(C)(=O)=O (stereo not given) ... inactive
C[C@]12CC[C@@H]3c4ccc(OC(=O)c5ccccc5)cc4CC[C@H]3[C@@H]1CC[C@@H]2O ... inactive
CCOC(=O)Cc1cccc(-c2cc(CCCCCCc3ccc(O[C@H]4O[C@H](COC(C)=O)[C@@H](OC(C)=O)[C@H](OC(C)=O)[C@@H]4OC(C)=O)c(-c4cccc(CC(=O)OCC)c4)c3)ccc2O[C@H]2O[C@H](COC(C)=O)[C@@H](OC(C)=O)[C@H](OC(C)=O)[C@@H]2OC(C)=O)c1 ... inactive
Cc1ccc(S(=O)(=O)NC(=O)N[C@@H](C)Cc2ccccc2)cc1 ... inactive

Asked: Annotate the molecule CN1C(=O)CN2CCc3ccccc3C2c2cc(Cl)ccc21 (stereo not given) with its measured Potency.
Given back: 4.73 µM (active)

Asked: Annotate the molecule Cc1cccc(C)c1Nc1ncccc1C(=O)O with its measured Potency.
Given back: 29.8 µM (active)

Asked: Annotate the molecule NCCC(=O)[N-][C@@H](Cc1cnc[nH]1)C(=O)O.[Zn] with its measured Potency.
Given back: inactive

Asked: Annotate the molecule COC(=O)CC[C@H](N)C(=O)O with its measured Potency.
Given back: inactive

Asked: Annotate the molecule CCOc1ccc(C[C@H]2NC(=O)CCSSC[C@@H](C(=O)N3CCC[C@H]3C(=O)N[C@@H](CCCN)C(=O)NCC(N)=O)NC(=O)[C@H](CC(N)=O)NC(=O)[C@H]([C@@H](C)O)NC(=O)[C@H]([C@@H](C)CC)NC2=O)cc1 ([Mpa][dY](Et)ITNCP[Orn]G-NH2; disulfide 1-6) with its measured Potency.
Given back: inactive

Asked: Annotate the molecule Nc1ncnc2c1ncn2[C@@H]1O[C@H](COP(=O)(O)OP(=O)(O)OP(=O)(O)O)[C@@H](O)[C@H]1O with its measured Potency.
Given back: inactive
